Test system: tat protein
ASSAY_INFO: competition filter binding assay with chemically synthesized RNA (Table 4)
Parameters: species or system HIV-1
APPLIED_CONDITIONS: 32P-end labelled 18-mer annealed to 15-mer
[4sT] = 4-thio-2'-deoxythymidine; d = 2'-deoxy (DNA); r = 2'-OH (RNA)
MEASURED_ATTRIBUTE: Krel (59-mer)

// returns reported Krel (59-mer) for input HIV-1 TAR (UUU): full length HIV-1 TAR RNA of 59 residues prepared by transcription, wild type, UUU bulge (GGGUCUCUCUGGUUAGACCAGAUUUGAGCCUGGGAGCUCUCUGGCUAACUAGGGAACCC; unmodified RNA) [reference compound]
1.0

Subsequent entry: 15 +18: duplex of unmodified 18-mer [SEQ ID NO: 13] and 15-mer [SEQ ID NO: 14] containing a U-rich bulge (chain 1 AGCCAGAUUUGAGCAGCU; chain 2 AGCUGCUCUCUGGCU; RNA, phosphodiester; duplex with U-rich bulge)
0.3

Also check 4-thioT-24: 15-mer annealed to 18-mer where U24 is replaced by 4-thio-2'-deoxythymidine (AGCCAGAUTUGAGCAGCU; sugars from the 5' end r8 d1 r9, [4sT] at 9, backbone not given here; annealed to 15-mer strand)
0.7

Please answer likewise for 4-thioT-25: 15-mer annealed to 18-mer where U25 is replaced by 4-thio-2'-deoxythymidine (AGCCAGAUUTGAGCAGCU; DNA at 10, [4sT] at 10, other sugars and backbone not given here; annealed to a 15-mer strand, further chemistry not fully specified)
1.5

---

Test system: HIV-1 tat protein
ASSAY_INFO: competition filter binding assay, mutant TAR transcripts against labelled HIV-1 TAR RNA (FIG. 7, Table 1)
APPLIED_CONDITIONS: 20 nM TAR RNA, 40 nM tat protein; read-out: D1/2 (concentration of competitor RNA that reduces binding of HIV-1 tat to HIV-1 TAR RNA to 50%)
Assign IC50 to each entry below.
Report the value in nM with no unit label.

For the substance G28 to C28: TAR point mutation expected to disrupt the top of the TAR stem/loop structure (GGGUCUCUCUGGUUAGACCAGAUUUGACCCUGGGAGCUCUCUGGCUAACUAGGGAACCC; chemistry not given here) , what IC50 is on record?
680

Please give the result for HIV-2 TAR: first stem-loop structure of HIV-2 ROD TAR RNA, bulge of two uridine residues (CUGCGGAGAGGCUGGCAGAUUGAGCCCUGGGAGGUUCUCUCCAGCACUAGCAG; RNA, backbone not given here) [reference compound] too.
160

---

Tested on: tat protein
ASSAY_INFO: competition filter binding assay with chemically synthesized RNA (Table 4)
Parameters: species or system HIV-1
APPLIED_CONDITIONS: relative to 14 +17 duplex; 32P-end labelled 18-mer annealed to 15-mer
[4sT] = 4-thio-2'-deoxythymidine; d = 2'-deoxy (DNA); r = 2'-OH (RNA)
Would you kindly list Krel (29 or 14 +17) for each of these substances?

Krel (29 or 14 +17) for 4-thioT-25: 15-mer annealed to 18-mer where U25 is replaced by 4-thio-2'-deoxythymidine (AGCCAGAUUTGAGCAGCU; DNA at 10, [4sT] at 10, other sugars and backbone not given here; annealed to a 15-mer strand, further chemistry not fully specified) ?
4.2

15 +18: duplex of unmodified 18-mer [SEQ ID NO: 13] and 15-mer [SEQ ID NO: 14] containing a U-rich bulge (chain 1 AGCCAGAUUUGAGCAGCU; chain 2 AGCUGCUCUCUGGCU; RNA, phosphodiester; duplex with U-rich bulge) ?
0.8

Next substance up: HIV-1 TAR (UUU): full length HIV-1 TAR RNA of 59 residues prepared by transcription, wild type, UUU bulge (GGGUCUCUCUGGUUAGACCAGAUUUGAGCCUGGGAGCUCUCUGGCUAACUAGGGAACCC; unmodified RNA) [reference compound]
2.8

Param item: 4-thioT-24: 15-mer annealed to 18-mer where U24 is replaced by 4-thio-2'-deoxythymidine (AGCCAGAUTUGAGCAGCU; sugars from the 5' end r8 d1 r9, [4sT] at 9, backbone not given here; annealed to 15-mer strand)
2.0
